src = PubChem BioAssay AID463173

Test system: DeltatarO mutant
Assay: S. aureus survival, RN4220 and DeltatarO strains – OD600, teichoic acid synthesis inhibitors, primary screen (AID 463173)
Conditions: S. aureus RN4220 wild type/DeltatarO growth, OD600, 18 h, screened at 18.75 µg/mL (by protocol)
In all, about 52,000 compounds went through this assay and about 4,300 (8.3%) were called active. Rule as the data show it: active = survival mostly below about 52% (no sharp cut-off); inactive = mostly above about 56%. For the sample, actives were picked, then their nearest neighbours and some compounds at random.
Labels: 1 = active, -1 = inactive

compound | assigned-category
CC(=O)Nc1ccc(NC(=O)c2cc(-c3ccc4c(c3)OCCO4)on2)cc1 | -1
COCCCNC(=O)c1ccc2c(c1)NC(=O)C(C(C)C)N2 (configuration not stated) | -1
O=C(CN1C(=O)c2cccc3cccc1c23)N1CCCC1 | -1
C=Cc1ccc(Cn2c(C(=O)O)c(CNCCc3ccccc3)c3ccc(C)cc32)cc1 | -1
COc1ccc(OC)c(CNCc2c(C(=O)O)n(Cc3ccccc3)c3cc(OC)ccc23)c1 | -1
CCCNC(=O)c1cc(-c2ccccc2)on1 | -1
CNC(=O)c1cnc2sc(N3CCC(C)CC3)nn2c1=O | -1
CCOc1ccc(CNCc2c(C(=O)O)n(Cc3ccc(C)cc3)c3cc(C)ccc23)cc1 | 1
CCOC(=O)c1cccc(Nc2ccc3cc(S(=O)(=O)N4CCCCC4)ccc3n2)c1 | 1
CCc1ccc(CNCc2c(C(=O)O)n(Cc3cccc(F)c3)c3cc(OC)ccc23)cc1 | -1
O=C(NCCc1ccccc1)c1cc(-c2ccc(Cl)c(Cl)c2)on1 | -1
O=C(CN1C(=O)CSc2ccc(S(=O)(=O)N3CCCC3)cc21)NCc1ccccc1Cl | -1
CCOc1ccc(S(=O)(=O)NCCc2sc3nc(-c4ccc(C)cc4)nn3c2C)cc1 | -1
Cc1ccc2c(CNCc3cccc(Cl)c3)c(C(=O)O)n(Cc3ccc(F)cc3Cl)c2c1 | -1
CCCCNC(=O)c1cc(-c2ccc(Cl)c(Cl)c2)on1 | 1
O=C(Nc1nnc(N2CCCCCC2)s1)Nc1ccccc1C(F)(F)F | -1
CC(=O)c1ccc(NC(=O)c2cc(-c3ccc4c(c3)OCO4)on2)cc1 | -1
CCSc1nsc(NC(=O)Nc2cccc(F)c2)n1 | 1
O=S(=O)(c1ccc2nc(Nc3cccc(F)c3)ccc2c1)N1CCCC1 | -1
COc1cc(S(=O)(=O)N2CCN(C)CC2)c(C)cc1C | -1
CC1=C(C(=O)Nc2ccc(F)cc2)C(c2ccc(N(C)C)cc2)NC(=O)N1 (configuration not stated) | -1
Cc1ccc2c(CNCCc3ccccc3)c(C(=O)O)n(Cc3ccccc3C)c2c1 | 1
